Conditions: buffer; pH 7.4; 200.0 µM
So I've got a bunch of compounds here, and I need their solubility kinetic values.
Answers are plain numbers, in µg/mL.

Go through the list and state solubility kinetic for each entry.
1. COCCCNc1nc2nonc2nc1N1CCN(C2CCCC2)CC1
2. O=C(Nc1cccc(S(=O)(=O)N2CCCCC2)c1)c1cc(=O)[nH]c2ccccc12
3. CC(C)S(=O)(=O)c1csc(NC(=O)Nc2ccc(Cl)cc2)c1
4. Nc1ccccc1-c1nc2ccccc2[nH]c1=O
5. CCCCN(C(=O)c1ccncc1)c1c(N)n(CCC)c(=O)[nH]c1=O
6. O=C(NCCN1CCOCC1)c1ccc(Cl)c(S(=O)(=O)NCc2ccccc2)c1

## Output
1: 45.9; 2: 9.2; 3: 2.8; 4: 33.8; 5: 37.1; 6: 63.2

====

Conditions: buffer; pH 7.4; 200.0 µM
measure: solubility kinetic

// below: answered compounds
## Input Query solubility kinetic for Cc1ccc(OCC(=O)Nc2ccccc2F)cc1C
## Output 3.2 µg/mL

## Input Entry CCCCN(C)CCNC(=O)c1cn(C)c(=O)c2c1c1ccccc1n2C needs its solubility kinetic filled in; supply it.
## Output > 55.3 µg/mL

Record solubility kinetic per entry; entries follow.
1. CCn1cc(C(=O)N2CCCCC2)c2ccccc21
2. CC(C)(C)c1ccc(/C=C2\SC(=O)N=C2N)cc1
3. CCOc1ccc(NC(=O)c2ccc(CC)s2)c([N+](=O)[O-])c1
4. O=CN1CCN(c2c([N+](=O)[O-])c(=O)oc3ccccc23)CC1
5. CCN(Cc1nc(-c2ccccc2)no1)C(=O)c1ccc2c(c1)OCO2

## Output
1: > 38.5 µg/mL; 2: < 0.3 µg/mL; 3: < 0.3 µg/mL; 4: > 45.5 µg/mL; 5: 36.5 µg/mL

====

Conditions: buffer; pH 7.4; 200.0 µM
Decision: solubility kinetic compared against 30 µg/mL; not below it gives t, below it gives f.

## Input Evaluate c1cncc(C2Nc3cccc4cccc(c34)N2)c1 : solubility kinetic at minimum 30 µg/mL?
## Output t

## Input # check: solubility kinetic of Cn1c(C(=O)N2CCN(c3ccccn3)CC2)cc2ccccc21 is greater than or equal to 30 µg/mL
## Output t

## Input Is solubility kinetic at least 30 µg/mL? Consider c1ccc(-c2csc(-c3cccnc3)n2)cc1
## Output f

## Input Determine whether measured solubility kinetic meets or exceeds 30 µg/mL for CCOCCCNC(=O)c1cc2c(s1)-c1ccccc1SC2
## Output f

## Input Does CCSC1=C(C#N)C(c2ccc(C)o2)CC(=O)N1 (stereo not drawn) have a reported solubility kinetic of at least 30 µg/mL?
## Output t

New cases:
## Input Check the entry CCC(=O)Nc1ccc2c(c1)ncn2CCc1ccccc1 : does solubility kinetic equal or exceed 30 µg/mL?
## Output t

## Input Tell me whether solubility kinetic is at least 30 µg/mL here: CCn1cc(S(=O)(=O)Nc2cccnc2)cn1
## Output t

## Input Can O=C(Nc1cccc2ccccc12)OCc1cncs1 be said to have solubility kinetic at or above 30 µg/mL?
## Output t

## Input Textbook exercise: given the entry Cc1ccc2cc(COC(=O)c3cccc([N+](=O)[O-])c3)c(=O)[nH]c2c1 , state whether its solubility kinetic is greater than or equal to 30 µg/mL.
## Output f
